molecular target: EGFR on EGFR positive non-small cell lung cancer cells NCI-H1650 (UniProt P00533 25-1210); experiment: cell-based or functional assay
observed.property: H1650 GFP Flourescence EC50

- binder: "AbG-TX (antibody, human IgG1, kappa, V domains shown, synthon TX on reduced interchain cysteines; average DAR 3.3 per ADC) VH: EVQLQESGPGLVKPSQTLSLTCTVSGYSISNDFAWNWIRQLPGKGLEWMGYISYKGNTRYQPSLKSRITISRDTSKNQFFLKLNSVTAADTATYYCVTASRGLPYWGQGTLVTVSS VL: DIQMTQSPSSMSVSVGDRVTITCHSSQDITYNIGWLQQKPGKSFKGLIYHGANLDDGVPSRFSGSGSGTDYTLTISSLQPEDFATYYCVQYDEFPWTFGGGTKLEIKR"
  observed.property: "H1650 GFP Flourescence EC50"
  reading: "0.51 µg/mL"

Please report H1650 GFP Flourescence EC50 for the following binder: AbK-ZZ (antibody, human IgG1, kappa, V domains shown, synthon ZZ on reduced interchain cysteines; average DAR 1.9 per ADC) VH: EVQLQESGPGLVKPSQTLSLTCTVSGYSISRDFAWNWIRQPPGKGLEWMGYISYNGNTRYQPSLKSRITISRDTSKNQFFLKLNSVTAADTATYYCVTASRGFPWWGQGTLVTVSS VL: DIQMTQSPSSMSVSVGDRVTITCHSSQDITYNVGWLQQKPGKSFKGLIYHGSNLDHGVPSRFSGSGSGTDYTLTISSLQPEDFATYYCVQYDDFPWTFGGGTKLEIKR
0.16 µg/mL

Give a short answer stating reported H1650 GFP Flourescence EC50 for AbB-XW (antibody, human IgG1, kappa, V domains shown, synthon XW on reduced interchain cysteines; average DAR 3.2 per ADC) VH: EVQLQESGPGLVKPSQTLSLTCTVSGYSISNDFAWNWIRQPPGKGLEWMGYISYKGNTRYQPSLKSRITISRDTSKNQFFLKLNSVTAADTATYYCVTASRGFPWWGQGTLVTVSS VL: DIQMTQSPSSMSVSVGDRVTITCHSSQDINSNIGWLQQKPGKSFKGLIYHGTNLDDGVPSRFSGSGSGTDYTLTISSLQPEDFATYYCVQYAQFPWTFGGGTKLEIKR .
12.1 µg/mL
